Consider the following compounds and their measured inhibition readings.
measured on: Large T antigen (Simian virus 40) (UniProt P03070)
Sequence (P03070 whole entry, looked up): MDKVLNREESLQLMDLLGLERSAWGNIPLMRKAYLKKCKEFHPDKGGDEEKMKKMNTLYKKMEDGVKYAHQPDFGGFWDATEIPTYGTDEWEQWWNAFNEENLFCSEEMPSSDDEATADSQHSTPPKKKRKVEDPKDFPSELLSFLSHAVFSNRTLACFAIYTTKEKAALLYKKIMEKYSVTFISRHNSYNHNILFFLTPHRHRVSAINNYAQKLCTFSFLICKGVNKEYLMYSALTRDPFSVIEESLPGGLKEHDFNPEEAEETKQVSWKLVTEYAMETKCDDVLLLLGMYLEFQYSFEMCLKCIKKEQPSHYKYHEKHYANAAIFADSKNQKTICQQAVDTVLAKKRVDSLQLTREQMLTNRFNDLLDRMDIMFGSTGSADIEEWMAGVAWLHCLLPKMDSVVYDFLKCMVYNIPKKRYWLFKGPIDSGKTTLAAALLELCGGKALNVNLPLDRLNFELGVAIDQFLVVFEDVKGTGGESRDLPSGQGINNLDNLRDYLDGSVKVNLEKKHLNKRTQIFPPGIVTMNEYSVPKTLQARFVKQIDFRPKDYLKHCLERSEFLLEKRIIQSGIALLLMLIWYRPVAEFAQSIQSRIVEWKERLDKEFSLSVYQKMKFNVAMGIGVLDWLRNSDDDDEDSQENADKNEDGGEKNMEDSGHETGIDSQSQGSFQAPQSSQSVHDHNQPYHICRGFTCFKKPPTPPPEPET
experimental protocol: SV40 large T antigen inhibitors, biochemical (AID 1903)
condition summary: SV40 large T antigen ATPase/helicase inhibition assay; at 20 µM; active compounds read high
The campaign covered roughly 310,000 compounds. About 1,200 (0.39%) were called active. A selection follows. Potency and affinity values are given separately.

Input: Sample "CCC(=O)Oc1ccc(C(=O)Nc2cccc(NC(=O)c3ccco3)c2)cc1" — what was its inhibition?
Output: -2.07% (inactive)

Input: Sample CC(NC(=O)c1cc(S(=O)(=O)N2CCCC2)cn1C)c1ccccc1 (stereo unspecified) — what was its inhibition?
Output: 5.41% (inactive)

Input: Sample "COCc1cc(C)nc(SCC(=O)Oc2ccc(Cl)cc2)c1C#N" — what was its inhibition?
Output: 16% (inactive)

Input: Sample "CC(=O)Nc1ccc(S(=O)(=O)N2CCN(Cc3cccnc3)CC2)cc1" — what was its inhibition?
Output: 0.357% (inactive)

Input: Sample "O=C(OCc1ccc(Br)cc1)c1cnc(Cl)c(Cl)c1" — what was its inhibition?
Output: 6.01% (inactive)

Let's switch to this compound now.
Input: Sample "Cc1csc(Sc2ccc(S(=O)(=O)N3CCCC3)cn2)n1" — what was its inhibition?
Output: 10.9% (inactive)

###

measured on: Large T antigen (Simian virus 40)
experimental protocol: SV40 large T antigen inhibitors, biochemical (AID 1903)
condition summary: SV40 large T antigen ATPase/helicase inhibition assay; at 20 µM; active compounds read high
The whole screen tested about 310,000 compounds, of which about 1,200 (0.39%) were called active. The list is a sample of the results. Potency and affinity values are given separately.
Consider the following compounds and their measured inhibition readings.
Reply with just the number (in %).

Check out these entries, answers already filled in.
Input: Sample "CCOC(=O)Nc1nc(-c2ccccc2)c(C(=O)c2ccccc2)s1" — what was its inhibition?
Output: 10

Input: Sample "N#Cc1cc2c(nc1SCC(=O)Nc1sc3c(c1C#N)CCC3)CCCCCC2" — what was its inhibition?
Output: -1.85

Input: Sample c1cc(C(c2nnnn2C2CCCC2)N2CCOCC2)ccn1 (stereo not given) — what was its inhibition?
Output: 4.22

Input: Sample COc1ccc(CCN2C(=O)NC(NS(=O)(=O)c3ccc(Cl)cc3)(C(F)(F)F)C2=O)cc1OC (stereo not given) — what was its inhibition?
Output: 12.9

Input: Sample "Cc1sc2ncn(CC(=O)NCc3ccco3)c(=O)c2c1-c1ccc(F)cc1" — what was its inhibition?
Output: 14.3

***
Input: Sample "COc1ccc(-c2nc(-c3ccccc3)[nH]c(=O)c2C#N)cc1" — what was its inhibition?
Output: 9.65

Input: Sample CCC(C)(C)n1nnnc1C(c1ccc2ncccc2c1)N1CCN(c2nc3ccccc3s2)CC1 (stereo not given) — what was its inhibition?
Output: 9.88

Input: Sample "CN(C)S(=O)(=O)c1ccc(Cl)c(NC(=O)CN2CCNC(=O)C2)c1" — what was its inhibition?
Output: 5.76

Input: Sample "CN(C)c1ccc(C(=O)N2CCN(c3cc(C(F)(F)F)nc4ccccc34)CC2)cc1" — what was its inhibition?
Output: 16.5

Input: Sample "Cc1ccc(NC(=O)CN2C(=O)c3ccccc3S2(=O)=O)c(C)c1" — what was its inhibition?
Output: 10.7

###

Consider the following compounds and their measured inhibition readings.
measured on: Large T antigen (Simian virus 40) (UniProt P03070)
experimental protocol: SV40 large T antigen inhibitors, biochemical (AID 1903)
condition summary: SV40 large T antigen ATPase/helicase inhibition assay; at 20 µM; active compounds read high
In all, about 310,000 compounds went through this assay and about 1,200 (0.39%) were called active. Not all results are given here. Results with a measured potency or affinity are listed apart.
Reply with just the number (in %).

Input: Sample "CCOc1cc(C(=O)N[C@@H](C)C(=O)N2CCC3(CC2)NCCc2[nH]cnc23)cc(OCC)c1OCC" — what was its inhibition?
Output: 4.98

***
Input: Sample "O=c1c2c([N+](=O)[O-])cc([N+](=O)[O-])cc2nc2ccccn12" — what was its inhibition?
Output: 9.53

Input: Sample Cc1nnc2n(Cc3ccccc3)c(=O)c3c4c(sc3n12)COC(C(C)C)C4 (stereo not given) — what was its inhibition?
Output: 7.22

Input: Sample O=C1c2c([N+](=O)[O-])cc([N+](=O)[O-])cc2S(=O)N1Cc1ccccc1 (stereo not given) — what was its inhibition?
Output: 11.3

Input: Sample "COc1ccc(NC(=O)COC(=O)Cn2nnc3ccccc32)cc1" — what was its inhibition?
Output: 12.6

Input: Sample "O=S(=O)(c1cccs1)N1CCC2(CC1)OCCN2S(=O)(=O)c1ccccc1" — what was its inhibition?
Output: 11.8

Input: Sample O=S(Cc1cc(Oc2ccccc2)nc(-c2ccccc2)n1)c1ccccc1 (stereo not given) — what was its inhibition?
Output: 16.4

Input: Sample Cc1nnc2n(-c3ccccc3)c(=O)c3c4c(sc3n12)COC(C(C)C)C4 (stereo not given) — what was its inhibition?
Output: 5.27

Input: Sample "Cc1cc(C)nc(SCCC(=O)Nc2ccccc2)n1" — what was its inhibition?
Output: -11.3

Input: Sample COc1cc(OC)cc(C(=O)NCC2CCCN(C(=O)c3csc(C(C)C)n3)C2)c1 (stereo not given) — what was its inhibition?
Output: 12.6

###

measured on: Large T antigen (Simian virus 40) (UniProt P03070)
experimental protocol: SV40 large T antigen inhibitors, biochemical (AID 1903)
condition summary: SV40 large T antigen ATPase/helicase inhibition assay; at 20 µM; active compounds read high
In all, about 310,000 compounds went through this assay and about 1,200 (0.39%) were called active. The list is a sample of the results. Potency and affinity values are given separately.
property: inhibition (%)
Reply with just the number (in %).

Check out these entries, answers already filled in.
Input: Sample "COc1ccc(OCCCC(=O)OCC(=O)NNC(=O)c2ccc([N+](=O)[O-])cc2)cc1" — what was its inhibition?
Output: 11.8

Input: Sample "CN1C(=O)c2ccc(C(=O)NCc3ccc4c(c3)OCO4)cc2C1=O" — what was its inhibition?
Output: 4.66

Input: Sample CCc1ccc2[nH]c(=O)c(C(c3nnnn3CCOC)N3CCN(c4ccc(F)cc4)CC3)cc2c1 (stereo not given) — what was its inhibition?
Output: 16.5

Input: Sample "Cc1cccc(-c2noc(CNC(=O)c3ccc4c(c3)OCO4)n2)c1" — what was its inhibition?
Output: 9.48

Input: Sample "COc1ccc(NC(=O)COc2ccc(C)c(C)c2)cc1S(=O)(=O)N1CCCCC1" — what was its inhibition?
Output: 5.04

Input: Sample CCOc1ccc(C(c2nnnn2C(C)(C)C)N2CCN(C(=O)c3ccco3)CC2)cc1 (stereo not given) — what was its inhibition?
Output: 4.34

Input: Sample "Cc1ccc(N=Nc2c(N)n[nH]c2N)cc1" — what was its inhibition?
Output: 25

Input: Sample CCc1ccc2[nH]c(=O)c(C(c3nnnn3CCOC)N3CCN(c4ccccc4)CC3)cc2c1 (stereo not given) — what was its inhibition?
Output: 6

Input: Sample "C/C(=N\NC(=O)c1cc(C)[nH]n1)c1ccc(-c2ccccc2)cc1" — what was its inhibition?
Output: 5.47

Let's switch to this molecule now.
Input: Sample "COCc1cc(SC2CCCCC2)nc(C)n1" — what was its inhibition?
Output: 10.5

###

measured on: Large T antigen (Simian virus 40) (UniProt P03070)
experimental protocol: SV40 large T antigen inhibitors, biochemical (AID 1903)
condition summary: SV40 large T antigen ATPase/helicase inhibition assay; at 20 µM; active compounds read high
Among all 310,000 compounds or so, about 1,200 (0.39%) were called active. Not all results are given here. Entries with a potency or affinity are not part of this list.
Consider the following compounds and their measured inhibition readings.
Reply with just the number (in %).

Check out these entries, answers already filled in.
Input: Sample "CCCCOC(=O)Nc1ccc(C(N)=O)cc1" — what was its inhibition?
Output: 12.3

Input: Sample O=c1c(-c2ccc(O)cc2)coc2c(C3O[C@H](CO)[C@@H](O)[C@H](O)[C@H]3O)c(O)ccc12 (stereo not given in full) — what was its inhibition?
Output: 24.2

Input: Sample O=C(O)C1CCCCC1C(=O)Nc1ccc(OCc2ccccc2)cc1 (stereo not given) — what was its inhibition?
Output: 9.44

Input: Sample "Cc1ccc(NC(=S)c2ccc(N(C)C)cc2)cc1" — what was its inhibition?
Output: -10.2

***
Input: Sample O=c1cc(-c2ccc(O)cc2)oc2c(C3O[C@H](CO)[C@@H](O)[C@H](O)[C@H]3O)c(O)cc(O)c12 (stereo not given in full) — what was its inhibition?
Output: 26

Input: Sample "Cc1ccc(-n2cc(CCCCCCCCC(=O)O)nn2)cc1" — what was its inhibition?
Output: 8.47

###

measured on: Large T antigen (Simian virus 40) (UniProt P03070)
experimental protocol: SV40 large T antigen inhibitors, biochemical (AID 1903)
condition summary: SV40 large T antigen ATPase/helicase inhibition assay; at 20 µM; active compounds read high
Screen size: about 310,000 compounds; about 1,200 (0.39%) were called active. These entries were drawn from the full list. Potency and affinity values are given separately.
property: inhibition (%)
Reply with just the number (in %).

Check out these entries, answers already filled in.
Input: Sample "CCCCCCCCC1=NCCc2c1[nH]c1ccccc21" — what was its inhibition?
Output: 7.25

Input: Sample "N/C(=N\N=C\c1ccc2c(c1)OCO2)c1nonc1N" — what was its inhibition?
Output: 7.74

Input: Sample Cc1ccc(N(C(=O)CNC(=O)c2ccco2)C(C(=O)NCC2CCCO2)c2ccccc2)c(C)c1 (configuration not stated) — what was its inhibition?
Output: 18.4

Input: Sample COc1cccc(N2CC(NS(=O)(=O)c3ccc4ccccc4c3)CC2=O)c1 (configuration not stated) — what was its inhibition?
Output: 11

Input: Sample "O=C(Nc1c(Cl)cc(Cl)cc1-c1nc2ccccc2s1)c1ccc(Br)o1" — what was its inhibition?
Output: 6.8

***
Input: Sample "CCC(=O)Nc1ccc(N2CCCCC2)cc1" — what was its inhibition?
Output: 34.9

Input: Sample Cc1c(C(=O)N2CC(C)OC(C)C2)[nH]c2ccc(Br)cc12 (configuration not stated) — what was its inhibition?
Output: 0.93

Input: Sample "O=C1OC(c2ccc(Cl)cc2)=N/C1=C\C=C\c1ccco1" — what was its inhibition?
Output: 58.1
